experimental.target: PrfA^WT (Listeria monocytogenes virulence master regulator PrfA) (Listeria monocytogenes) (UniProt P22262)
Sequence (P22262 1-237, tags left off): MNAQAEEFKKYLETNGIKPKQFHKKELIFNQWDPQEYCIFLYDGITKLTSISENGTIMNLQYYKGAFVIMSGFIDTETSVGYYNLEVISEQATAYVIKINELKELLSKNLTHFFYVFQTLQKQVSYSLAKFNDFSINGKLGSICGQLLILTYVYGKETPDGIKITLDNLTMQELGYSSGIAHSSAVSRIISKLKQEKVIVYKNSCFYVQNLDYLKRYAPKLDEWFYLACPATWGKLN
procedure.text: ITC
pKd: −log10 of the molar value.

| binder | pKd |
| --- | --- |
| EVFL [tetrapeptide EVFL] | 4.82 |
| RGLL [tetrapeptide RGLL] | 3.84 |
| STLL [tetrapeptide STLL] | 4.49 |
